tested on: SF-539; assay: NCI tumour cell line growth inhibition, 48 h
Calls of active or inactive are those of the source. Rule as the data show it: active = GI50 up to about 1.1 µM and inactive = higher.
Parameter call: string, one of 1 (yes) = active, 0 (no) = inactive

Sample answers from the record:
O=C(C/N=C(\CN(c1ccccc1)c1ccccc1)Oc1ccc(Cl)cc1Cl)n1ccnc1 : 0 (no)
O=C1OCC2=Nc3cccc4cccc(c34)N12 : 0 (no)
CC(C)OC(=O)[C@H]1ON2O[C@H](O[C@@H]3CCCC[C@H]3c3ccccc3)C([Si](C)(C)c3ccccc3)[C@H]3OC(=O)[C@@H]1C32 (stereo partly specified) : 0 (no)
C=CCN(c1cc(O)c2c(c(C)cn2S(=O)(=O)c2ccccc2)c1[N+](=O)[O-])S(C)(=O)=O : 0 (no)
O=C(CCCn1ccnc1[N+](=O)[O-])NCCn1cnc([N+](=O)[O-])n1 : 0 (no)

Prompt line: What is the recorded call for this compound in the test? CCOC(=O)CN(c1ccccc1)c1nc(=[N+](C)C)ss1
Response line: 0 (no)

Prompt line: Also check O=S(=O)(O)c1ccc(/N=N/c2ccc(/N=N/c3c(O)c(S(=O)(=O)O)cc4cc(S(=O)(=O)O)ccc34)cc2)cc1
Response line: 0 (no)

---

system: OVCAR-8; assay: NCI tumour cell line growth inhibition, 48 h
The source made the active and inactive calls. Cut-off read from the data, not from the text of the source: active = GI50 up to about 1.1 µM and inactive = higher.
Give one outcome, nothing more. List: 1 (active), -1 (inactive)

Examples from the recorded data:
CCOC(=O)C1CCCCN1CCc1c[nH]c2ccccc12 (stereo unspecified) : -1
COc1cc(O)c(C(=O)/C=C/c2ccccc2)c(OC)c1 : -1
CC(C)=CCC1=C(OCC(=O)O)C(=O)c2ccccc2C1=O : -1
CC(NC(=O)OCc1ccccc1)NC(=O)OC(C)(C)C (stereo unspecified) : -1
CC(C)(C)OC(=O)N/C(C=O)=C\C1CCCCC1 : -1

Prompt line: Assay result, entry O=c1[nH]cnc2c1sc1nc3ccccc3n12 — outcome?
Response line: -1

Prompt line: Can you check CCC(=S)N(C)O next?
Response line: -1

Prompt line: Cool, now O=C(NC1CCCCC1NC(c1ccccc1)(c1ccccc1)c1ccccc1)C(=O)NC1CCCCC1NC(c1ccccc1)(c1ccccc1)c1ccccc1 (stereo unspecified)
Response line: -1

Prompt line: Same thing, different compound: CC1(C)c2ccccc2N2C(c3ccccc3)=NOC21C (stereo unspecified)
Response line: -1

Prompt line: One more compound: O=C(CCc1ccc(O)cc1)NCCc1cccc(OCc2ccccc2)c1
Response line: -1

Prompt line: Lookup S=C(N/N=C/c1ccccn1)N1CC2CCC(CC2)C1
Response line: 1

---

system: IGROV-1; test: NCI tumour cell line growth inhibition, 48 h
Active and inactive are the calls of the source. Rule as the data show it: active = GI50 up to about 1.1 µM and inactive = higher.
Please reply with one of these outcomes: yes (1) for active, no (0) for inactive

A selection of reference data follows.
CC(=O)Nc1c(S(=O)(=O)c2ccccc2)c(C)c(C)n1Cc1ccccc1 : no (0)
CN(CC1NCCCC1O)C12CC3CC(CC(C3)C1)C2 (stereo unspecified) : no (0)
CCC1(OC(=O)CN2CCN(CCO)CC2)C(=O)OCc2c1cc1n(c2=O)Cc2cc3ccccc3nc2-1 (stereo unspecified) : yes (1)

Prompt line: State the result this test recorded for C/C(CC(O)(C(F)(F)F)C(F)(F)F)=N\O .
Response line: no (0)

Prompt line: And then COC(=O)[C@H]1C=C[C@@H](C)n2c(=O)c3cc4ccccc4cc3c(=O)n21 , what is it?
Response line: no (0)

Prompt line: Now give it for C=C=CC(NC(=O)c1ccccc1)(C(=O)O)C(F)(F)F (stereo unspecified) too.
Response line: no (0)

---

system: MDA-N; test: NCI tumour cell line growth inhibition, 48 h
Activity calls are given as the source filed them. Rule as the data show it: active = GI50 up to about 1.1 µM and inactive = higher.
measureName: GI50

Use the examples below as a reference point.
O=C1C([P+](c2ccccc2)(c2ccccc2)c2ccccc2)=C([O-])C(=Cc2ccc(Cl)c(Cl)c2)C([O-])=C1[P+](c1ccccc1)(c1ccccc1)c1ccccc1 : 1.9 µM (inactive)
COc1cc(-c2oc3c(OC)c(O)c(OC)c(O)c3c(=O)c2OC)cc(O)c1OC : 17.7 µM (inactive)
COc1cc(C(=O)Nc2cc(C(N)=O)cc(OC)c2OC)cc(NC(=O)/C=C/c2ccccc2)c1OC : > 100 µM (inactive)
COc1ccc2[nH]c3c(C)c4cnccc4c(C)c3c2c1 : 1.85 µM (inactive)

// next item, GI50 requested
Prompt line: Give GI50 (MDA-N) of the following compound: O=C(O)c1ccc(C=C2Sc3ccccc3S2)cc1
Response line: 29 µM (inactive)

---

system: UACC-257; experiment: NCI tumour cell line growth inhibition, 48 h
Active and inactive are the calls of the source. No stated cut-off is given here; in the data, active = GI50 up to about 1.1 µM and inactive = higher.
Give one outcome, nothing more. List: Y = active, N = inactive

CCOC1OC(C)(C=C(C#N)C#N)CCC1C (stereo not drawn) : N
O=c1c(C(c2ccc([N+](=O)[O-])cc2)c2c(O)oc3ccccc3c2=O)c(O)oc2ccccc12 : N
CC(C)N(CCn1c2c3ccccc3ccc2c2oc(=O)c3ccccc3c21)C(C)C : N

Prompt line: Call for entry COc1ccc2c(c1OC)C(=O)N1C2=Cc2c(cc3c(c2OC)OCO3)CC1N(C)C (stereo not drawn) :
Response line: N

Prompt line: Quick one: Cc1cc(NS(=O)(=O)c2ccc(/N=[N+](\[O-])c3ccc(S(=O)(=O)Nc4cc(C)on4)cc3)cc2)no1
Response line: N

---

tested on: HCC 2998; test: NCI tumour cell line growth inhibition, 48 h
Active and inactive are the calls of the source. Cut-off read from the data, not from the text of the source: active = GI50 up to about 1.1 µM and inactive = higher.
Hi there, use one of these labels in your reply, thanks! active, inactive

Worked set:
OCCCCCCCCCCCOc1ccc(C2OCC3(CC=CCC3)CO2)cc1 (stereo unspecified) : inactive
CNc1ccc([S+]([O-])Nc2ccc(OC)cc2)cc1 (stereo unspecified) : inactive
S=C(N/N=C/c1ccccn1)N1CC2CCC(CC2)C1 : active
C=C1C(=O)OC2/C=C(\C)C(OC(C)=O)C3OC3C(C)(O)CC(OC(=O)/C(C)=C/C)C12 (stereo unspecified) : inactive
CSC1=NN(C(C)=O)C(C(OC(C)=O)C(OC(C)=O)C(OC(C)=O)C(COC(C)=O)OC(C)=O)S1 (stereo unspecified) : inactive

Prompt line: Per the assay record, what outcome was assigned to COc1ccc2ccccc2c1CN1CCOCCOCCN(Cc2c(OC)ccc3ccccc23)CCOCCOCC1 ?
Response line: inactive

---

Some compounds, each annotated with its measured GI50.
system: HL-60; experiment: NCI tumour cell line growth inhibition, 48 h
Activity calls are given as the source filed them. Cut-off read from the data, not from the text of the source: active = GI50 up to about 1.1 µM and inactive = higher.

Prompt line: Which measured GI50 belongs to CCOC(=O)CCC(NC(=O)c1ccc(Nc2nc3ccccc3nc2C(=O)OCC)s1)C(=O)OCC (stereo not given) , tested on HL-60?
Response line: 36.6 µM (inactive)

Prompt line: Try CC(=O)O[C@H]1CC[C@@]2(C)C(=CC[C@@H]3[C@@H]2CC[C@]2(C)Nc4c(cnn4S(C)(=O)=O)C[C@@H]32)C1 next.
Response line: 23.4 µM (inactive)

Prompt line: Cool, now O=C(Nc1ccc(Cl)cc1Cl)/C(Cl)=C1/Sc2ccccc2NC1=O
Response line: 21.9 µM (inactive)

Prompt line: Same thing, different compound: CNc1cc(Cl)ccc1C(=O)N1CCC[C@H]1CO
Response line: 81.7 µM (inactive)

Prompt line: Entry to check: Nc1nc(N)c(-c2cccc(C(F)(F)F)c2)c(Cc2cccc(C(F)(F)F)c2)n1
Response line: 2.2 µM (inactive)

---

tested on: Hs-578T; assay: NCI tumour cell line growth inhibition, 48 h
Activity calls are given as the source filed them. Rule as the data show it: active = GI50 up to about 1.1 µM and inactive = higher.
Listed below: GI50 values for each entry.

OCCCCCCCCCCCOc1ccc(C2OCC3(CC=CCC3)CO2)cc1 (stereo not given) : 7.87 µM (inactive)

Prompt line: Need GI50, item CCCC1C(CC)C(NC)C(C#N)(C#N)C1(C#N)C#N (stereo not given)
Response line: 25.9 µM (inactive)

Prompt line: Field entry: Cc1cc2c(cc1C)[n+]([O-])c(C(=O)/C=C/c1ccc3c(c1)OCO3)c(C)[n+]2[O-]
Response line: 26.2 µM (inactive)

Prompt line: // next record CC(C)(Cc1ccccc1)N1C(=O)N1C(C)(C)Cc1ccccc1
Response line: > 100 µM (inactive)

Prompt line: Try this compound too: O=c1cnn(C/C=C/CO)c(=O)[nH]1
Response line: > 100 µM (inactive)

Prompt line: // next record CC(C)OC(=O)[C@H]1ON2O[C@H](O[C@@H]3CCCC[C@H]3c3ccccc3)C([Si](C)(C)c3ccccc3)[C@H]3OC(=O)[C@@H]1C32 (stereo not given in full)
Response line: > 100 µM (inactive)

Prompt line: Also O=c1c2cc([N+](=O)[O-])ccc2n2n1CCCCC2 ?
Response line: > 100 µM (inactive)

Prompt line: Entry CCN(CC)Cc1ccc(C(=S)Nc2ccc(Cl)cc2)s1 please
Response line: 10.4 µM (inactive)

Prompt line: Okay, and CCOC(=O)C1CCCCN1CCc1c[nH]c2ccccc12 (stereo not given) ?
Response line: > 100 µM (inactive)

Prompt line: Same question, C=CCN(c1cc(O)c2c(c(C)cn2S(=O)(=O)c2ccccc2)c1[N+](=O)[O-])S(C)(=O)=O this time
Response line: > 100 µM (inactive)
